Data origin: PubChem BioAssay (EPA / NIEHS)

assay_target: chimpanzee Androgen Receptor (AR), AR (gene 747460) (UniProt O97775)
Sequence (O97775 whole entry, looked up): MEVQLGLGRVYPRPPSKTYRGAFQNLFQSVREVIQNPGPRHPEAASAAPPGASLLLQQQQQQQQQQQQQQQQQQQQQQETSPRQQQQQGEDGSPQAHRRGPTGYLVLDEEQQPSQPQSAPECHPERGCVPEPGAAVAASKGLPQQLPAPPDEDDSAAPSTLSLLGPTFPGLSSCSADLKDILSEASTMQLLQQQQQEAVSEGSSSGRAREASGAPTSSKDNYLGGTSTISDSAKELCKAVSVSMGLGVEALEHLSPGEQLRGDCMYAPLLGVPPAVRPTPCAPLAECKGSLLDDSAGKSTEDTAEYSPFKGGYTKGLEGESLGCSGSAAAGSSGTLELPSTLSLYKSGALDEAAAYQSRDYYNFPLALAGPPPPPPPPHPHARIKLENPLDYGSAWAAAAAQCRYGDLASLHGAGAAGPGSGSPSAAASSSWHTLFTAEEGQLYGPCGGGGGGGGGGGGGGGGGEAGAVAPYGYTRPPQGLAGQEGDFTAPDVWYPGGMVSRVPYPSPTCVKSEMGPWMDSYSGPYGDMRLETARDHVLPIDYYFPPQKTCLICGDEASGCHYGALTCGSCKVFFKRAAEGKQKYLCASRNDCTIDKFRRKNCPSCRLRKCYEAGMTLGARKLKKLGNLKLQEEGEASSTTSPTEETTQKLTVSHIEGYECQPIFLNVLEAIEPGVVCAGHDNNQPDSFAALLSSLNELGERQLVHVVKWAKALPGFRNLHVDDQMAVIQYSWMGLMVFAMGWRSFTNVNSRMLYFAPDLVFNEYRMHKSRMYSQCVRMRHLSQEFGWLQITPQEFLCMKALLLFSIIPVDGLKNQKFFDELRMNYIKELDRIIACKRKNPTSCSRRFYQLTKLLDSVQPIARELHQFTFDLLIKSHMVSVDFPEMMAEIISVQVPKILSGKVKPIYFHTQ
assay_remarks: NVS_NR_cAR: NovaScreen (NVS) Nuclear Receptor Binding Assay for chimpanzee Androgen Receptor (AR) (AID 2283346);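 note: radioligand displacement from AR measured by scintillation counting in a cell-free assay; a loss of bound radioligand signal versus DMSO counts as binding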
Results filed as inconclusive are left out. Active and inactive are the calls of the source. Rule for the calls: active = hit-call score of the fitted dose curve at least 0.9, where 1 is the maximum; inconclusive = response in the unintended direction; inactive = score below 0.9.
Classes used: active, inactive

>  <molecule>
CC(C)(C)c1cc(/C=C2\SC(N)=NC2=O)cc(C(C)(C)C)c1O

>  <group>
active

$$$$
>  <molecule>
CN(C)c1ccc(C(=C2C=CC(=[N+](C)C)C=C2)c2ccc(N(C)C)cc2)cc1

>  <group>
active

$$$$
>  <molecule>
CCN(Cc1cccc(S(=O)(=O)O)c1)c1ccc(C(=C2C=CC(=[N+](CC)Cc3cccc(S(=O)(=O)O)c3)C=C2)c2ccccc2S(=O)(=O)[O-])cc1

>  <group>
active

$$$$
>  <molecule>
CCCCCc1ccc(N)cc1

>  <group>
inactive

$$$$
>  <molecule>
O=C1CCC(C2CCCCC2)CC1

>  <group>
inactive

$$$$
>  <molecule>
Cc1oc2c(NC(=O)c3c(Cl)cccc3Cl)cccc2c1C(C)(C)O

>  <group>
inactive

$$$$
>  <molecule>
NCc1cccc(C2CCN(C(=O)c3ccc(C#Cc4ccccc4F)o3)CC2)c1

>  <group>
active

$$$$
>  <molecule>
CN1C(=O)N(c2ccccc2Br)Cc2cnc(Nc3ccc4c(c3)OCC(CO)O4)nc21 (centres undefined)

>  <group>
inactive

$$$$
>  <molecule>
O=c1c(-c2ccc(O)cc2)coc2cc(O)cc(O)c12

>  <group>
inactive

$$$$

====

Read-out: Monocyte Chemoattractant Protein-1 (MCP1), CCL2 (gene 6347)
assay_remarks: BSK_LPS_MCP1: BioMAP Diversity Plus: LPS Assay for Monocyte Chemoattractant Protein-1 (MCP1) Biomarker Activity (AID 2283081)
condition_context: primary human HUVEC with PBMC; actives raise or lower the signal
Active and inactive are the calls of the source. Rule for the calls: active = hit-call score of the fitted dose curve at least 0.9, where 1 is the maximum; inactive = score below 0.9.
Classes used: class 1 = active, class 0 = inactive

>  <smiles_repr>
CCCCCc1ccc(N)cc1

>  <group>
class 0

$$$$
>  <smiles_repr>
NC(=O)c1nc(-c2cccc(-c3cc(F)ccc3OCC(F)(F)C(F)(F)F)c2)n[nH]1

>  <group>
class 1

$$$$
>  <smiles_repr>
COc1cc(C(=O)NC2CCN(C)CC2)ccc1Nc1ncc2c(n1)N(C1CCCC1)CC(F)(F)C(=O)N2C

>  <group>
class 1

$$$$
>  <smiles_repr>
C[C@]12CC[C@@H]3c4ccc(O)cc4CC[C@H]3[C@@H]1CCC2=O

>  <group>
class 0

$$$$
>  <smiles_repr>
CC(C)(c1cc(Br)c(O)c(Br)c1)c1cc(Br)c(O)c(Br)c1

>  <group>
class 1

$$$$
>  <smiles_repr>
Cc1cccc2ccccc12

>  <group>
class 0

$$$$

====

Read-out: Transforming growth factor beta 1 (TGFb1), TGFB1 (gene 7040)
assay_remarks: BSK_KF3CT_TGFb1: BioMAP Diversity Plus: KF3CT Assay for Transforming growth factor beta 1 (TGFb1) Biomarker Activity (AID 2283072)
condition_context: primary human keratinocytes with fibroblasts; actives raise or lower the signal
The source made the active and inactive calls. Rule for the calls: active = hit-call score of the fitted dose curve at least 0.9, where 1 is the maximum; inactive = score below 0.9.
Classes used: class 1 = active, class 0 = inactive

>  <molecule>
CCN(Cc1cccc(S(=O)(=O)O)c1)c1ccc(C(=C2C=CC(=[N+](CC)Cc3cccc(S(=O)(=O)O)c3)C=C2)c2ccccc2S(=O)(=O)[O-])cc1

>  <group>
class 0

$$$$
>  <molecule>
O=C(O)c1ccccc1-n1cc(C(=O)O)c(=O)c2cc(Nc3c(F)cc(F)cc3Cl)c(Cl)cc21

>  <group>
class 0

$$$$
>  <molecule>
Oc1ccc2ccccc2c1

>  <group>
class 0

$$$$
>  <molecule>
CC(C)(C)c1cc(/C=C2\SC(N)=NC2=O)cc(C(C)(C)C)c1O

>  <group>
class 1

$$$$
>  <molecule>
Cc1cn([C@H]2C[C@H](N=[N+]=[N-])[C@@H](CO)O2)c(=O)[nH]c1=O

>  <group>
class 0

$$$$
>  <molecule>
CCN(Cc1cccnc1)C(=O)c1cccc(Cl)c1[C@]1(C)C(=O)N(Cc2ccc(OC)cc2OC)c2ccc(Cl)cc21

>  <group>
class 0

$$$$
>  <molecule>
CC(O)CC(C)(C)O (stereo unspecified)

>  <group>
class 0

$$$$
>  <molecule>
CCN(CC)C(=O)c1cc(S(=O)(=O)Cc2ccccc2)c(N2CCC(c3ccccc3)CC2)cc1N(CC)CCN(C)C

>  <group>
class 0

$$$$
>  <molecule>
CC/C(=C(/CC)c1ccc(O)cc1)c1ccc(O)cc1

>  <group>
class 1

$$$$
>  <molecule>
O=C(Nc1ccc(Cl)cc1)Nc1ccc(Cl)c(Cl)c1

>  <group>
class 0

$$$$
>  <molecule>
C[C@]12CC[C@@H]3c4ccc(O)cc4CC[C@H]3[C@@H]1CCC2=O

>  <group>
class 0

$$$$
>  <molecule>
CCCCCCCCOc1ccc(C(=O)c2ccccc2)c(O)c1

>  <group>
class 0

$$$$
>  <molecule>
Cc1cc(F)ccc1-c1cc(N2CC[C@@H](O)[C@H]2CO)ncc1N(C)C(=O)C(C)(C)c1cc(C(F)(F)F)cc(C(F)(F)F)c1

>  <group>
class 1

$$$$
>  <molecule>
Cc1ccc(C(C)C)cc1

>  <group>
class 0

$$$$
>  <molecule>
NCc1cccc(C2CCN(C(=O)c3ccc(C#Cc4ccccc4F)o3)CC2)c1

>  <group>
class 1

$$$$
>  <molecule>
Cc1ncc(CO)c(CO)c1O

>  <group>
class 0

$$$$
>  <molecule>
OCCO

>  <group>
class 0

$$$$
>  <molecule>
CCCC(=O)OCCC(C)C

>  <group>
class 0

$$$$
>  <molecule>
COc1cc(C(=O)NC2CCN(C)CC2)ccc1Nc1ncc2c(n1)N(C1CCCC1)CC(F)(F)C(=O)N2C

>  <group>
class 1

$$$$
>  <molecule>
CC(C)(O)c1ccc(CNC(=O)c2cccnc2Oc2ccc3nonc3c2)cc1

>  <group>
class 0

$$$$
>  <molecule>
c1ccc2ccccc2c1

>  <group>
class 0

$$$$
>  <molecule>
COc1ccc2cc(S(=O)(=O)N[C@H](CC(=O)N[C@H](Cc3ccc(CN4[C@H](C)CCC[C@@H]4C)cc3)C(=O)N(C)C(C)C)c3ccc4c(c3)OCO4)ccc2c1

>  <group>
class 0

$$$$
>  <molecule>
O=C1c2ccccc2C(=O)N1CCc1noc(-c2ccc(CN3CCCCCC3)s2)n1

>  <group>
class 0

$$$$
>  <molecule>
OC12N=C(c3ccccc3)SC1Cc1cc(Cl)ccc12 (stereo unspecified)

>  <group>
class 0

$$$$
>  <molecule>
CCCCCCCCCCCCO

>  <group>
class 1

$$$$
>  <molecule>
C[C@]12CC[C@@H]3c4ccc(O)cc4CC[C@H]3[C@@H]1CC[C@H]2O

>  <group>
class 0

$$$$
>  <molecule>
Cc1oc2c(NC(=O)c3c(Cl)cccc3Cl)cccc2c1C(C)(C)O

>  <group>
class 0

$$$$
>  <molecule>
O=c1[nH]sc2ccccc12

>  <group>
class 1

$$$$
>  <molecule>
CCOC(=O)O[C@H](C)OC(=O)c1ccc2c(c1)cc(C(=O)NC1CCN(C(C)C)CC1)n2Cc1cc(-c2ccc(Cl)s2)on1

>  <group>
class 1

$$$$
>  <molecule>
CC1(C)NC(=O)N(c2ccc([N+](=O)[O-])c(C(F)(F)F)c2)C1=O

>  <group>
class 0

$$$$
>  <molecule>
O=C=NCCCCCCN=C=O

>  <group>
class 0

$$$$
>  <molecule>
Cc1occc1C(=O)Nc1ccc(C(=O)N2CCC(F)(F)/C(=C\C(=O)N3CCC(N4CCCCC4)CC3)c3ccccc32)cc1

>  <group>
class 0

$$$$
>  <molecule>
Clc1ccccc1C(c1ccccc1)(c1ccccc1)n1ccnc1

>  <group>
class 1

$$$$
>  <molecule>
CCCCOC(=O)CC(CC(=O)OCCCC)(OC(C)=O)C(=O)OCCCC

>  <group>
class 0

$$$$
>  <molecule>
CCCCCCCC[Si](OCC)(OCC)OCC

>  <group>
class 0

$$$$
>  <molecule>
c1ccc2n[nH]nc2c1

>  <group>
class 0

$$$$

====

Read-out: Plasminogen activator inhibitor-1 (PAI1), SERPINE1 (gene 5054)
assay_remarks: BSK_BE3C_PAI1: BioMAP Diversity Plus: BE3C Assay for Plasminogen activator inhibitor-1 (PAI1) Biomarker Activity (AID 2283037)
condition_context: primary human bronchial epithelial cells; actives raise or lower the signal
Calls of active or inactive are those of the source. Rule for the calls: active = hit-call score of the fitted dose curve at least 0.9, where 1 is the maximum; inactive = score below 0.9.
Classes used: active, inactive

>  <compound>
O=C(O)Cc1cc(I)c(Oc2ccc(O)c(I)c2)c(I)c1

>  <group>
active

$$$$
>  <compound>
CC1(C)NC(=O)N(c2ccc([N+](=O)[O-])c(C(F)(F)F)c2)C1=O

>  <group>
inactive

$$$$
>  <compound>
CC1=CC(=O)/C(=C(/C)O)C(=O)O1

>  <group>
inactive

$$$$
>  <compound>
CN1C(=O)N(c2ccccc2Br)Cc2cnc(Nc3ccc4c(c3)OCC(CO)O4)nc21 (stereo unspecified)

>  <group>
active

$$$$
>  <compound>
CC(C)(C)c1csc(-c2cc3cc(OCc4ccccc4CC(=O)O)ccc3o2)n1

>  <group>
active

$$$$
>  <compound>
CCCCCCCCOC(=O)c1cc(O)c(O)c(O)c1

>  <group>
active

$$$$
